- TARGET_UNDER_TEST: Voltage-dependent T-type calcium channel subunit alpha-1H (Homo sapiens, UniProt O95180);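 further: channel activity triggered by adding a high calcium stimulation buffer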
- Sequence (O95180 whole entry): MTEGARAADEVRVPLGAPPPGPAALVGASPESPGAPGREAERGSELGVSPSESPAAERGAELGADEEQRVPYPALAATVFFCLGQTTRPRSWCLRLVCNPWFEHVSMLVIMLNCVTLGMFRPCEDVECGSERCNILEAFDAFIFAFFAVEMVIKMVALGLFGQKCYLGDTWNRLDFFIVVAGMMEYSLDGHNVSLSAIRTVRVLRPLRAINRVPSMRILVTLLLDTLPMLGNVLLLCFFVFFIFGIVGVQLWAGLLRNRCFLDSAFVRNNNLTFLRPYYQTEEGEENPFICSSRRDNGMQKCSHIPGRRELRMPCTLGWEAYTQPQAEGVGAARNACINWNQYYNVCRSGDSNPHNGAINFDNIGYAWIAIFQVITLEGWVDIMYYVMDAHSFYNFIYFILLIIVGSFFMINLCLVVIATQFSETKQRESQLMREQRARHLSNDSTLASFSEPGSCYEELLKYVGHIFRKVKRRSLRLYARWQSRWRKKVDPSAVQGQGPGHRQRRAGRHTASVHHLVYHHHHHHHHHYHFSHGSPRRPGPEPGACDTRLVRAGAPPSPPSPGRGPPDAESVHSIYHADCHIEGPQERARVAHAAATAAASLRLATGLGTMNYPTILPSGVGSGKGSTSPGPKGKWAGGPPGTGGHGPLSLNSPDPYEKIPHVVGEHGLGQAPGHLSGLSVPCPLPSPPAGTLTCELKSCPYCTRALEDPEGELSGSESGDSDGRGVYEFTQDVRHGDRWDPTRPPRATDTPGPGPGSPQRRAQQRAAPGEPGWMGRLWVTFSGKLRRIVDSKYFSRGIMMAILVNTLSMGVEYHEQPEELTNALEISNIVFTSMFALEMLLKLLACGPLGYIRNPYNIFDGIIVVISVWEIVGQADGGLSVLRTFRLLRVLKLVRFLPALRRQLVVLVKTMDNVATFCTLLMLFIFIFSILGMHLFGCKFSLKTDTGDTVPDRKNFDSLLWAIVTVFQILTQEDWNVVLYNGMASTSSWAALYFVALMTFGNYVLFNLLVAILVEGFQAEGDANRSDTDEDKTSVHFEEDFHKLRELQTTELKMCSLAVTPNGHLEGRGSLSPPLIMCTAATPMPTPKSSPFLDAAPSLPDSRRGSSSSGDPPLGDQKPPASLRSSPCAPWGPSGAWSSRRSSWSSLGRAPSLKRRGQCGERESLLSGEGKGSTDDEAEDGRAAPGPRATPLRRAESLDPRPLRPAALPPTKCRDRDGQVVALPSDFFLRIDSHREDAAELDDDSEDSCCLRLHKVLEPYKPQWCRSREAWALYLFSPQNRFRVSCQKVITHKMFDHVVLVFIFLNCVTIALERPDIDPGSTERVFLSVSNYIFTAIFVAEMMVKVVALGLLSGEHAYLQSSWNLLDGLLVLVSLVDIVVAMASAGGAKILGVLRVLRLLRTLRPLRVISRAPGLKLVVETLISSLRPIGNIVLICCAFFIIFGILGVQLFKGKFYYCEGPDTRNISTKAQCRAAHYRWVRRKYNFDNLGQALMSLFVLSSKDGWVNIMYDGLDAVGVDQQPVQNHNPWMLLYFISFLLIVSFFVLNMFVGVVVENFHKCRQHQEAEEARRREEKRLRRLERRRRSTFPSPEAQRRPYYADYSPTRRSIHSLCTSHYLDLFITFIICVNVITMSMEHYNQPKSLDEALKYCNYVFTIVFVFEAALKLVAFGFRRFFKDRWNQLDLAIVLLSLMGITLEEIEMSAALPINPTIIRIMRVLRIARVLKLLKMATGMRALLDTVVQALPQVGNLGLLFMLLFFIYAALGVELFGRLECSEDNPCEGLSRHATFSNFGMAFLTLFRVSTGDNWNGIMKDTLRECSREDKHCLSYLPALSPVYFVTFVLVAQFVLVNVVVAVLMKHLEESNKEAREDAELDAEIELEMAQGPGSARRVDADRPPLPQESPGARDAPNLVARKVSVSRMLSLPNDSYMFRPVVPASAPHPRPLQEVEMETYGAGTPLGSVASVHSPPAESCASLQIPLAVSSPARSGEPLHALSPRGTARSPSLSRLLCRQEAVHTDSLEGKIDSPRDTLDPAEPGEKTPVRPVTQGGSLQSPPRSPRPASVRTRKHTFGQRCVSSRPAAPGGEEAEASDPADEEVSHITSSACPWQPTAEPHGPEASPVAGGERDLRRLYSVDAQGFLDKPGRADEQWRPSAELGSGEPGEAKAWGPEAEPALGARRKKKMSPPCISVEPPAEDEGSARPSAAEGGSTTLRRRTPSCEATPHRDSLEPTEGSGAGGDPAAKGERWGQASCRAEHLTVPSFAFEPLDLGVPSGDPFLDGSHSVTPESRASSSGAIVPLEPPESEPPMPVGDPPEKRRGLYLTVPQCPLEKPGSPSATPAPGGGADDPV
- Type: functional
Calls of active or inactive are those of the source.
READOUT_KIND: EC50

The cases that follow already have their EC50 on record.
CC1CCN(S(=O)(=O)c2cccc(C(=O)NCc3cccs3)c2)CC1	2.96 µM (active)
CCN(CC)CCn1c(NCc2nc3ccccc3n2Cc2ccccc2)nc2ccccc21	4.94 µM (active)

Record summary for Clc1ccc(Cn2ncc3c(NCc4ccco4)ncnc32)c(Cl)c1 : reported EC50 = 1.99 µM (active)

The compound identified as CCC(=O)n1nc(NCc2ccccc2OC)nc1NCc1ccccc1OC registered its EC50 at 1.68 µM (active)

Entry under test: Cc1cccc(OCCCSc2nc3ccccc3[nH]2)c1 . Its EC50 was 3.47 µM (active)

Entry O=S(=O)(c1ccccc1)c1cnn(-c2ccccc2)c1-c1ccc(F)cc1 ; EC50 = 5.16 µM (active)

Summary for this compound, CC(C)Sc1oc(-c2ccco2)nc1S(=O)(=O)c1ccc(F)cc1 : EC50 is 7.9 µM (active)

The value of EC50 measured for the compound O=C(CSC1=NCCS1)Nc1ccc(S(=O)(=O)N2CCCCCC2)cc1 turned out to be 7.64 µM (active)

Briefly, EC50 measured for c1ccc(-c2ccccc2-c2nc(-c3cccnc3)no2)cc1 : 8.07 µM (active)

// field: EC50; key: CCc1ccccc1NC(=O)c1ccc(CN2CCC(Cc3ccccc3)CC2)cc1 ; value = 0.111 µM (active)

EC50 measured on CC(=O)Nc1ccc(S(=O)(=O)N2CCc3c(Cl)cccc3C2)cc1 = 4.82 µM (active)

###

- TARGET_UNDER_TEST: Replicative DNA helicase DnaB (Mycobacterium tuberculosis, UniProt P9WMR3)
- Sequence (P9WMR3 1-399, added parts left off): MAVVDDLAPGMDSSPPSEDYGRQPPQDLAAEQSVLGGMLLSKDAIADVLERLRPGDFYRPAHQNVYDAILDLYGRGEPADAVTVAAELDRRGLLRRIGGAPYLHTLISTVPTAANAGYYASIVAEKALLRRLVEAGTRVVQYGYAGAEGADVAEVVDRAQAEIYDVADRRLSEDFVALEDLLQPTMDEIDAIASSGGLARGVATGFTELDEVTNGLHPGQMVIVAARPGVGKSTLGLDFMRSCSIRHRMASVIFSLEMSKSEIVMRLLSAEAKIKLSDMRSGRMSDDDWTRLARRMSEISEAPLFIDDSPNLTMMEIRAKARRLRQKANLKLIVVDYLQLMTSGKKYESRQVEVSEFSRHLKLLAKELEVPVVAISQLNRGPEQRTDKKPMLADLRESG
- ASSAY_COMMENT: DnaB intein splicing inhibitors, dose response, biochemical, cell-free fluorescence (AID 449749)
- Type: functional
Active and inactive are the calls of the source.
Items are presented alongside their recorded AC50.

COC(=O)C[C@]1(C(=O)OC)CN(C#N)N(c2ccc(Cl)cc2)C12c1ccccc1-c1ccccc12	1.83 µM (active)

Item: O=C(CCl)NC(=O)NC12CC3CC(CC(C3)C1)C2 | System: Replicative DNA helicase DnaB (Mycobacterium tuberculosis, UniProt P9WMR3) | AC50: 12 µM (active)

Bench note, Replicative DNA helicase DnaB (Mycobacterium tuberculosis, UniProt P9WMR3): entry Cc1sc(NC(=O)/C=C/C(=O)O)c(C(N)=O)c1-c1ccc(C(C)(C)C)cc1 , its AC50 = > 380 µM (inactive)

For the molecule Cc1ccc(CS(=O)(=O)c2ncc(Cl)c(C(=O)Nc3nnc(C)s3)n2)cc1 , the measured AC50 on Replicative DNA helicase DnaB (Mycobacterium tuberculosis, UniProt P9WMR3) was 14.2 µM (active)

Query COC(=O)c1ccc(NC(=O)c2nc(S(=O)(=O)Cc3cccc(C)c3)ncc2Cl)cc1 on Replicative DNA helicase DnaB (Mycobacterium tuberculosis, UniProt P9WMR3); AC50 returned: 0.389 µM (active)

Kindly note: Replicative DNA helicase DnaB (Mycobacterium tuberculosis, UniProt P9WMR3), Cc1ccc(NC(=O)c2cnc(SCC(=O)NCC3CCCO3)n(C)c2=O)cc1C (stereo not given) , AC50 value reported: 7.83 µM (active)

Sample CCN(CC)S(=O)(=O)c1cc(NC(=O)Cn2ncc(Cl)c(Cl)c2=O)ccc1C , system: Replicative DNA helicase DnaB (Mycobacterium tuberculosis, UniProt P9WMR3). Its AC50 is 11.8 µM (active)

Case COc1cc(/C=C(\C#N)C(=O)Nc2ccc3c(c2)OCCO3)ccc1O , Replicative DNA helicase DnaB (Mycobacterium tuberculosis, UniProt P9WMR3), AC50 recorded as 75.9 µM (active)

# lookup: O=[N+]([O-])c1ccc(O)c2ncccc12 on Replicative DNA helicase DnaB (Mycobacterium tuberculosis, UniProt P9WMR3), AC50 = 9.95 µM (active)

Tested on Replicative DNA helicase DnaB (Mycobacterium tuberculosis, UniProt P9WMR3): O=C(CSC1=NCCS1)Nc1ccc(S(=O)(=O)N2CCCCCC2)cc1 . Observed AC50: 21.8 µM (active)

The measurements presented in this section are drawn from ChEMBL document CHEMBL1201862.
